- System: RL (Transformed follicular) cell line
- ASSAY NAME: Growth inhibition in vitro (XTT or Alamar blue)
- Format: cell-based, human
- TEST SETTINGS: 5 day continuous drug exposure
REPORTED PROPERTY: pIC50
Numbers only, as −log10 of the molar value.

*Q* What value of pIC50 has been recorded for this entry: C#CCC(Cc1cnc2nc(N)nc(N)c2n1)c1ccc(C(=O)N[C@@H](CCC(=O)O)C(=O)O)cc1 (stereo partly shown) [PDX, 10-Propargyl-10-deazaminopterin]
*A* 7.64

###

- ASSAY NAME: Second combination xenograft experiment (FIG. 5)
- TEST SETTINGS: SCID beige (CBSCBG-MM double), mouse, in vivo, ip
REPORTED PROPERTY: MTD at 2 weeks
Remember to put the unit after the number in your answer.

STRUCTURE SMILES: Nc1ccn([C@@H]2O[C@H](CO)[C@@H](O)[C@@H]2O)c(=O)n1
MTD at 2 weeks: 300 mg/kg

Consider the record given below.
*Q* What value of MTD at 2 weeks has been recorded for this entry: Nc1ccn([C@@H]2O[C@H](CO)[C@@H](O)C2(F)F)c(=O)n1
*A* 60 mg/kg

src = patent US7939530B2
